Task for the reader: assign each of the following compounds its reported pEC50.
Target: POsterior Segregation (Caenorhabditis elegans, UniProt G5EF15)
Sequence (G5EF15 whole entry): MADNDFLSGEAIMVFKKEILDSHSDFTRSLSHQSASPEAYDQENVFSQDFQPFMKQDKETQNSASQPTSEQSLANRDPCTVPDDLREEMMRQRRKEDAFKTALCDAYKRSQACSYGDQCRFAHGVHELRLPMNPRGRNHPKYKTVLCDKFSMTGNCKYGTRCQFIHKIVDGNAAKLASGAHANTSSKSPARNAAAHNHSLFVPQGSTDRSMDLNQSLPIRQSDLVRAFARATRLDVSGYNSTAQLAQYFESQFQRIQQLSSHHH
Assay: inhibitors of POS-1/mex-3 RNA binding, dose response, biochemical, fluorescence polarization (AID 1964)
One number for each entry, as −log10 of the molar value.

molecule | tgt | pEC50
Cc1cc(=O)[nH]c(N=NCc2ccc(O)c(O)c2)n1 | POsterior Segregation (Caenorhabditis elegans, UniProt G5EF15) | 4.00

For the next question, use this compound.
Query pEC50 for C=c1[nH]n(-c2cccc(C(=O)O)c2)c(=O)c1=CC=Cc1ccco1 4.70

---

Target: POsterior Segregation (Caenorhabditis elegans, UniProt G5EF15)
Experiment: inhibitors of POS-1/mex-3 RNA binding, dose response, biochemical, fluorescence polarization (AID 1964)
Task for the reader: assign each of the following molecules its reported EC50.

molecule | tgt | EC50
COc1cc(C2C3=C(CC(C)(C)CC3=O)OC(=N)C2C#N)ccc1OCCN1CCOCC1 (stereo not given) | POsterior Segregation (Caenorhabditis elegans, UniProt G5EF15) | > 300 µM
CC1CCC2=C(C#N)C(=N)C(C#N)(C#N)C(c3cccs3)C2C1 (stereo not given) | POsterior Segregation (Caenorhabditis elegans, UniProt G5EF15) | 21.7 µM
O=C1N=c2ccc(Br)cc2=C1NNc1nnn[nH]1 | POsterior Segregation (Caenorhabditis elegans, UniProt G5EF15) | 14 µM
COc1ccc(C2C(C(C)=O)=C(C)N=c3sc(=Cc4cc(C)n(C)c4C)c(=O)n32)c(OC)c1 (stereo not given) | POsterior Segregation (Caenorhabditis elegans, UniProt G5EF15) | 10.9 µM
CC1(C)CC(=O)C2=C(C1)OC(=N)C(C#N)C2c1ccccc1OC(=O)N1CCOCC1 (stereo not given) | POsterior Segregation (Caenorhabditis elegans, UniProt G5EF15) | > 300 µM
COc1cc(C2C3=C(CC(C)(C)CC3=O)OC(=N)C2C#N)cc2c1OCO2 (stereo not given) | POsterior Segregation (Caenorhabditis elegans, UniProt G5EF15) | > 300 µM

Hello, I would appreciate it if you could give EC50 for each entry below.
1. O=[N+]([O-])c1cc/c(=N\c2ccccc2O)c2no[nH]c1-2
2. Oc1ccc(C=Nn2c(O)csc2=S)c(O)c1O
3. COc1ccc(CCN2C(=O)NC(=O)C(=CNNC(=O)c3ccncc3)C2=O)cc1OC

["24.4 µM", "5.17 µM", "150 µM"]

Hello, I would appreciate it if you could give EC50 for each entry below.
1. Oc1c(Br)cc(Br)c(C=Nn2c(-c3ccccc3)n[nH]c2=S)c1Br
2. CC1(C)CC(=O)C2=C(C1)OC(=N)C(C#N)[C@@]21C(=O)N(CC(N)=O)c2ccccc21 (stereo not given in full)
3. CC1(C)CC(=O)C2=C(C1)OC(=N)C(C#N)C2c1ccc2c(c1)OCO2 (stereo not given)
4. CC1(C)CC(=O)C2=C(C1)OC(=N)C(C#N)C2c1ccccc1 (stereo not given)
5. O=C1C([N+](=O)[O-])=CC(Cl)=CC1/C=N/NC(=O)C(O)(c1ccccc1)c1ccccc1 (stereo not given)
6. C=CCOc1cccc(C2C(C(=O)c3cc4ccccc4o3)C(=O)C(=O)N2c2cc(C)on2)c1 (stereo not given)
7. CC(N=Nc1ccc(Cl)c(C(=O)O)c1)c1ccc[nH]1 (stereo not given)
8. CN(C)c1ccc(NC=C2C(=O)NC(=O)N(CCC3=CCCCC3)C2=O)cc1

1. 8.49 µM
2. > 300 µM
3. > 300 µM
4. > 300 µM
5. > 300 µM
6. > 300 µM
7. > 300 µM
8. > 300 µM

Hello, I would appreciate it if you could give EC50 for each entry below.
1. CCOc1cccc(C2C(C(=O)c3ccc(C)o3)C(=O)C(=O)N2c2nccs2)c1 (stereo not given)
2. N#CC1C(=N)OC2=C(C(=O)CC(c3ccccc3)C2)C1c1ccc2c(c1)OCO2 (stereo not given)
3. CCOC(=O)c1c(NC=C2C(=O)NC(=S)NC2=O)sc(C)c1C

["1.41 µM", "> 300 µM", "> 300 µM"]
